tested on: Echinochloa oryzoides (Ard.) Fritsch.; experiment: Postemergence weed control under flooded paddy conditions, ECHORC (Watergrass (Calif.)); format: in vivo; details: Rate 0.1250 kg/ha, rated three to four weeks after treatment
Reported herbicidal effect rating, ECHORC by item:
Measure name: herbicidal effect rating, ECHORC

>>> quantitative_result("COc1cc(C)ccc1-c1nsc2ccc(-n3c(=O)cc(C(F)(F)F)n(C)c3=O)cc12")
9.0
>>> quantitative_result("Cc1nsc2ccc(-n3c(=O)cc(C(F)(F)F)n(C)c3=O)cc12")
9.0
>>> quantitative_result("CCCCC(=O)c1nsc2ccc(-n3c(=O)cc(C(F)(F)F)n(C)c3=O)cc12")
9.0
>>> quantitative_result("COC(=O)COc1ccc(C)cc1-c1noc2ccc(-n3c(=O)cc(C(F)(F)F)n(C)c3=O)c(Cl)c12")
0.0
>>> quantitative_result("CCC(C#N)(CC)c1nsc2ccc(-n3c(=O)cc(C(F)(F)F)n(C)c3=O)cc12")
9.0

Just for reference, patent EP0908457B1 is where these values come from.
